# Test system: UO-31 renal
# experimental-protocol: NCI tumour cell line growth inhibition, 48 h
TGI overview
readout: TGI (µM)

INSERT INTO results (given_smiles, assayed_target, comparative_sign, data_value) VALUES
  ('O=C(O)Cc1[nH]cnc1C(=O)O', 'UO-31 renal', '>', 100),
  ('C/C(=C\c1c[nH]c2ccccc12)[N+](=O)[O-]', 'UO-31 renal', '=', 17.7),
  ('O=c1c2c3c(sc2nc2n1N=CN(c1ccc(Cl)cc1)C2)CCCC3', 'UO-31 renal', '>', 100),
  ('CC(C)=CCC[C@@H](C)C1=C(Nc2ccccc2)C(O)=C(C)C(=O)C1=O', 'UO-31 renal', '=', 15.5),
  ('CCCCCCCCCCCCNC1(C)CNCCCNCCNCCCNC1', 'UO-31 renal', '=', 5.83),
  ('O=C(/C=C\Sc1nccc(C(F)(F)F)n1)c1ccc(Br)cc1', 'UO-31 renal', '=', 34),
  ('N#CC(C#N)=C1CCCCc2ccc([N+](=O)[O-])cc21', 'UO-31 renal', '>', 100),
  ('CC1(C)OC(=O)CC12CCN(Cc1ccccc1)CC2', 'UO-31 renal', '>', 100);

The reported measurements were obtained from PubChem BioAssay (NCI).
